# experimental protocol: Biodistribution in PC-3 tumor-bearing NRG mice (Example 1)
# Assay type: in vivo
# measurement context: male, NRG (NOD.Cg-Rag1tm1Mom Il2rgtm1Wjl/SzJ), mouse, fat, iv, 1.84 MBq, total radioactivity; 30 min p.i.; read-out: Biodistribution Fat, Mean
assay metric: tissue uptake at 0.5 h (%ID/g)
Unit %ID/g implied. Number only.

Given CC(C)C[C@@H](CN1CCC[C@H]1C(N)=O)NC(=O)[C@H](Cc1c[nH]cn1)NC(=O)CNC(=O)[C@@H](NC(=O)[C@H](C)NC(=O)[C@H](Cc1c[nH]c2ccccc12)NC(=O)[C@H](CCC(N)=O)NC(=O)[C@@H](Cc1ccccc1)NC(=O)COCC(=O)Nc1ccc(CNC(=O)CN2CCN(CC(=O)O)CCN(CC(=O)O)CCN(CC(=O)O)CC2)cc1)C(C)C [^68Ga-ProBOMB1, metal not drawn] , state its recorded tissue uptake at 0.5 h.
0.17
